B1: TRIM15 (parent)
chain: LSQMGAQSSGKILLCPLCQEEEQA

- Variants of: B1
- ASSAY_PROCEDURE: protein stability index of a GFP-peptide fusion (GPS, HEK-293T) (PSI 1-6); higher = more stable;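 also: lentivirally expressed fusions sorted by FACS into six bins by GFP to DsRed ratio, PSI derived from sequencing read proportions per bin multiplied by bin number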
- MEASUREMENT_CONTEXT: c terminus: a fixed tail appended
ASSAY_READOUT: protein stability index
API doc: respond with a numeric literal and nothing else, no unit.

Here are 3 variants together with their reported answers.
[[record]]
entry_sequence = "LSQMGAQSFGKILLCPLCQEEEQA [S9F]"
reported_measurement = 2.36

[[record]]
entry_sequence = "PSQMGAQSSGKILLCPLCQEEEQA [L1P]"
reported_measurement = 3.44

[[record]]
entry_sequence = "LSQMGAQSSGKILLCPLCQEQEQA [E21Q]"
reported_measurement = 2.91


Request: // returns reported protein stability index for input LSRMGAQSSGKILLCPLCQEEEQA [Q3R]
Result: 3.23

Request: // returns reported protein stability index for input LSQMSAQSSGKILLCPLCQEEEQA [G5S]
Result: 3.05

Request: // returns reported protein stability index for input LEQMGAQSSGKILLCPLCQEEEQA [S2E]
Result: 4

Request: // returns reported protein stability index for input LSQMGAQSSGKILLCWLCQEEEQA [P16W]
Result: 2.9

Request: // returns reported protein stability index for input LSQMGAQSSGKIPLCPLCQEEEQA [L13P]
Result: 3.97

Request: // returns reported protein stability index for input LSQMGAQSSGDILLCPLCQEEEQA [K11D]
Result: 2.81

Request: // returns reported protein stability index for input LSQMGAQSSGKILLCPLFQEEEQA [C18F]
Result: 3.81
